The values you see were collected from PubChem BioAssay (NCI).

Hi there, I'd appreciate the recorded TGI for every entry that follows.
System: RXF-631 renal
Assay: NCI tumour cell line growth inhibition, 48 h
One number for each entry, in µM.

| molecule | TGI / µM |
| --- | --- |
| C/C(=N\NS(=O)(=O)c1c(C)cc(C)cc1C)c1ccc[n+]([O-])n1 | 93 |
| COc1ccc2c(c1OC)C(C=C(c1ccccc1)c1ccccc1)CN(C)C2 (configuration not stated) | 66.4 |
| COc1c(Cl)[c]([Hg][O]C(C)=O)c(NCC(C)=O)c(OC)[c]1[Hg][O]C(C)=O | 3.88 |

stdin: Give its TGI value. Item: `Cn1cc2ccccc2c1-c1nc(F)nc(Nc2ccc(N)cc2)n1`
stdout: 38.2

====

Test system: SW-620 colon
Experiment: NCI tumour cell line growth inhibition, 48 h; in the data active = GI50 below about 0.43 µM; inactive = the rest
Permitted responses: 1 (active), -1 (inactive)

Take a look at these entries with their results.
| molecule | answer_label |
| --- | --- |
| Clc1ccc(COC(Cn2ccnc2)c2ccc(Cl)cc2Cl)c(Cl)c1 (stereo not given) | -1 |
| CCCCCC(=C/c1ccccc1)/C=N/N=C(N)N | -1 |
| CCCCCCC(O)C(O)CCC(O)C1CCC(CCCCC(O)CC2=CC(C)OC2=O)O1 (stereo not given) | -1 |
| Cc1ccc2c(c1)-c1oc(=O)c(-c3cc4ccccc4oc3=O)cc1C(O)O2 (stereo not given) | -1 |
| CCCCCCCCCC[N+](C)(C)C | -1 |
| COc1ccc(C(=O)c2cc(C)c(OC)c(C)c2)c(OC)c1N(C(=O)CCl)C(=O)CCl | 1 |
| CN1CCN(c2ccc(-c3cccc(CN4CCOCC4)c3)cc2NC(=O)c2c[nH]c(=O)cc2C(F)(F)F)CC1 | -1 |
| O=C(Nc1ccc(-n2ccc3c(NC(=O)c4ccccc4)nccc32)cc1)c1ccc(N2CCOCC2)c(C(F)(F)F)c1 | 1 |

stdin: Per the records of this test, what outcome belongs to `Cc1ccc(-n2c3c(c4c(CN)c(O)ccc42)CCc2ccccc2C3=O)cc1` ?
stdout: -1

stdin: Continue with `O=c1c(-c2nc3ccccc3[nH]2)cc2ccccc2n1Cc1cn(Cc2ccccc2Cl)nn1`
stdout: -1

====

Tested on: OVCAR-5 ovarian
Experiment: NCI tumour cell line growth inhibition, 48 h
observation_type: GI50

| molecule | system_name | observation_type | observed_result |
| --- | --- | --- | --- |
| COc1ccc2c(c1)c(-c1ccc(-c3cn(C)c4ccc(OC)cc34)o1)cn2C | OVCAR-5 ovarian | GI50 | 2.79 µM |

Provide GI50 for all items below, preserving their order.
1. CCCC(=O)Nc1c(I)cc(I)c(CC(CC)C(=O)O)c1I (configuration not stated)
2. CC(=Nc1ccccc1)C1=C(O)C(Cc2ccc(F)cc2)NC1=O (configuration not stated)
3. COC1C(O)CC(OC2CC(OC3CC(O[C@@H]4C(=O)c5c(cc6cc(OC7CC(OC8CC(O)C(O)C(C)O8)C(O)C(C)O7)c(C)c(O)c6c5O)CC4[C@H](OC)[C@@H](O)C(C)=O)OC(C)C3O)OC(C)C2O)OC1C (some centres not stated)
4. CCCCCCC(O)C(O)CCC(O)C1CCC(CCCCC(O)CC2=CC(C)OC2=O)O1 (configuration not stated)
5. C=C(C)[C@@H]1CC[C@]2(CN)CC[C@]3(C)[C@H](CC[C@@H]4[C@@]5(C)CCC(N)[C@@](C)(CO)[C@@H]5CC[C@]43C)[C@@H]12 (some centres not stated)
6. Cc1ccc(-n2c3c(c4c(CN)c(O)ccc42)CCc2ccccc2C3=O)cc1

stdout:
1: > 100 µM; 2: 5.21 µM; 3: 0.0309 µM; 4: 23.7 µM; 5: 1.73 µM; 6: 15.8 µM
